The following compounds are shown together with reported log10 Ki values.
target: AmpC β-lactamase from E. coli (Escherichia coli, UniProt P00811); assay: biochemical; type: biochemical; conditions: Tables 2A/2B; pH 7.0, 25° C., 100 μM cephalothin; read-out: Ki E. coli AmpC
Sequence (P00811 20-377): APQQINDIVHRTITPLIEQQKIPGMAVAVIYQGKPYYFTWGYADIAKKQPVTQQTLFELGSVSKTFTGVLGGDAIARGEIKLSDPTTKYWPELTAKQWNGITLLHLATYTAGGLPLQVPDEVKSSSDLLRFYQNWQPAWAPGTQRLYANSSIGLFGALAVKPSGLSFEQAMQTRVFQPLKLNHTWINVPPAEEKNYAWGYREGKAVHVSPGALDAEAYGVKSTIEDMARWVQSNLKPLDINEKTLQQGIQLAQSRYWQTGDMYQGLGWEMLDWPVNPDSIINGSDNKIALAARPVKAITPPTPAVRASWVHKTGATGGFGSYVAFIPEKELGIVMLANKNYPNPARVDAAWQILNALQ
EXPERIMENTAL_READOUT: log10 Ki (log10 of the value in µM)

COMPOUND	log10 Ki
OB(O)c1cc(N=Nc2cccc(C(F)(F)F)c2)ccc1O [HFAB]	0.11
OB(O)c1ccccc1 [2FDB, phenylboronic acid, reference compound]	0.90
CC(=O)c1ccc(B(O)O)s1 [5ACTH2B, 5-acetylthiophene-2-boronic acid]	0.26
OB(O)c1cccc2ccccc12 [NAPB]	1.02
OB(O)c1cc2ccccc2c2ccccc12 [9PHNB, 9-Phenanthreneboronic acid]	1.10
O=Cc1ccccc1B(O)O [2FORMB, 2-formylphenylboronate, reference compound]	1.79
OB(O)c1ccc(-c2ccc(B(O)O)cc2)cc1 [BIPD, 4,4′-biphenyldiboronic acid]	-0.22

* * *

molecular target: AmpC β-lactamase from E. coli (Escherichia coli, UniProt P00811); assay: biochemical; assay type: biochemical; conditions: pH 7; read-out: Ki E. coli AmpC
EXPERIMENTAL_READOUT: Ki (µM)

COMPOUND	EXPERIMENTAL_READOUT	UNIT_ABBREVIATION	VALUE_OBSERVED
Cc1ccc(B(O)O)cc1 [4MEPB, 4-methylphenylboronate, reference compound]	Ki	µM	5.2
OB(O)c1ccsc1 [TH3B, thiopene-3-boronic acid]	Ki	µM	17
OB(O)c1cccc(C(F)(F)F)c1 [3TFMB]	Ki	µM	1.6
OB(O)c1ccc(C(F)(F)F)cc1 [4TFMB]	Ki	µM	9
OB(O)c1ccc(B(O)O)cc1 [B14DA]	Ki	µM	6.9
Oc1ccc(N=Nc2ccc(Br)cc2)cc1B1OB(c2cc(N=Nc3ccc(Br)cc3)ccc2O)OB(c2cc(N=Nc3ccc(Br)cc3)ccc2O)O1 [4BPAPB]	Ki	µM	7.2

* * *

target: TEM-1 β-lactamase from E. coli (Escherichia coli); construct: gift: Natalie Strynadka, University of Alberta; test: Inhibition of TEM-1 β-lactamase, spectrophotometric assay (FAP substrate); assay type: biochemical

COMPOUND	UNIT_ABBREVIATION	MEASUREMENT_QUALIFIER	Ki
CC(=O)c1ccc(B(O)O)s1 [5ACTH2B, 5-acetylthiophene-2-boronic acid]	µM	>	50
CN(C)c1cccc2c(S(=O)(=O)Nc3cccc(B(O)O)c3)cccc12 [NSULFB, m-(dansylamidophenyl)-boronic acid, reference compound]	µM	=	88
OB(O)c1ccc(Br)cc1 [4BPB, 4-bromophenylboronic acid]	µM	=	31.3
OB(O)c1cc2ccccc2o1 [BZBF2B, benzo[b]furan-2-boronic acid]	µM	=	8

* * *

Quick list: Ki per entry.
target: TEM-1 β-lactamase from E. coli (Escherichia coli, UniProt P62593); construct: gift: Natalie Strynadka, University of Alberta; test: Inhibition of TEM-1 β-lactamase, spectrophotometric assay (FAP substrate); assay type: biochemical
Sequence (P62593 24-286 limits assumed): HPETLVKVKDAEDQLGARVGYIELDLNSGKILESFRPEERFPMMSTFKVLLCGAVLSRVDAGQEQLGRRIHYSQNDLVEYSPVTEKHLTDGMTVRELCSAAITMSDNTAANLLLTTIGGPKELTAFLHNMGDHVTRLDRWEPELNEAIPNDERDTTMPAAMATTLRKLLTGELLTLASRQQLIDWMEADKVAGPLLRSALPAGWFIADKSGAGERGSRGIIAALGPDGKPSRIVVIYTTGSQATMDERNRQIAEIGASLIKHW
EXPERIMENTAL_READOUT: Ki (µM)

MOLECULE	EXPERIMENTAL_READOUT	MEASUREMENT_QUALIFIER	VALUE_OBSERVED
OB(O)c1ccc(-c2ccc(B(O)O)cc2)cc1 [BIPD, 4,4′-biphenyldiboronic acid]	Ki	>	100
OB(O)c1cccs1 [TH2B, thiophene-2-boronic acid]	Ki	=	31
CCCCB(O)O [BUTB, Butylboronic acid]	Ki	>	100
OB(O)c1ccc(Cl)s1 [5CLTH2B, 5-chlorothiophene-2-boronic acid]	Ki	=	17
OB(O)c1ccccc1 [2FDB, phenylboronic acid, reference compound]	Ki	>	100

* * *

system: E. coli RYC1000 harboring plasmid pBGAmpC-MHN (AmpC β-lactamase of Enterobacter cloacae); experiment: microbe, parasite or virus in culture; format: cell-based, Escherichia coli; settings: Table 4B; ECAmpCEn; not tested above 128 μg/ml, “256” indicates no inhibition of cell growth
Here the recorded MIC of inhibitor used alone without amoxicillin is given for each entry.
EXPERIMENTAL_READOUT: MIC of inhibitor used alone without amoxicillin (µg/mL)

COMPOUND	UNIT_ABBREVIATION	VALUE_OBSERVED
OB(O)c1cc2ccccc2c2ccccc12	µg/mL	256
OB(O)c1cccs1	µg/mL	128
OB(O)c1ccc(-c2ccc(B(O)O)cc2)cc1	µg/mL	256
C[C@]1(Cn2ccnn2)[C@H](C(=O)O)N2C(=O)C[C@H]2S1(=O)=O [TAZO, Tazobactam, reference compound]	µg/mL	64

* * *

test system: E. coli RYC1000 harboring plasmid pBGTEM-24 (TEM-24 β-lactamase); test: microbe, parasite or virus in culture; type: cell-based, Escherichia coli; details: Table 3A, proportion 4/1, given as CAZ/inhibitor; further: values in µg/ml
# key: entry, value: MIC of ceftazidime plus inhibitor

COMPOUND	MIC of ceftazidime plus inhibitor
OB(O)c1ccc(-c2ccc(B(O)O)cc2)cc1	256/64
OB(O)c1cc2ccccc2s1 [BZBTH2B, benzo[b]thiophene-2-boronic acid]	128/32
OB(O)c1cc2ccccc2c2ccccc12	256/64
Oc1ccc(N=Nc2ccc(Br)cc2)cc1B1OB(c2cc(N=Nc3ccc(Br)cc3)ccc2O)OB(c2cc(N=Nc3ccc(Br)cc3)ccc2O)O1	256/64
C1COB([C@@H]2CCOC2)OCCN1	256/64
C[C@]1(Cn2ccnn2)[C@H](C(=O)O)N2C(=O)C[C@H]2S1(=O)=O [TAZO, Tazobactam, reference compound]	8/2
OB(O)c1cccs1	128/32
OB(O)c1ccc(Cl)s1	128/32

* * *

target: AmpC β-lactamase from E. coli (Escherichia coli, UniProt P00811); assay: biochemical; type: biochemical; conditions: Table 5; as described in Example 2; read-out: Ki AmpC
Measured Ki by item

COMPOUND	Ki (µM)
O=C1OC(=O)c2ccccc2/C1=N/Nc1cccc(B(O)O)c1	0.075
O=C(O)/C=C/c1ccc(B(O)O)cc1	4.2
CN1C(=O)/C(=N\Nc2cccc(B(O)O)c2)c2ccccc2C1=O	0.075
OB(O)c1ccc2c(c1)OCO2	53.4
OB(O)c1ccc2[nH]ccc2c1	10.9
Cc1csc(B(O)O)c1	0.5
O=C(O)/C=C/c1cccc(B(O)O)c1	5.9

* * *

Readings of pKi for the listed compounds
target: AmpC β-lactamase from E. coli (Escherichia coli); test: biochemical; format: biochemical; conditions: Tables 2A/2B; pH 7.0, 25° C., 100 μM cephalothin; read-out: Ki E. coli AmpC
pKi: −log10 of the molar value.

COMPOUND	MEASUREMENT_QUALIFIER	pKi
OB(O)c1ccc(Cl)s1	=	5.85
C1COB([C@@H]2CCOC2)OCCN1	=	5.96
O=Cc1ccc(B(O)O)cc1 [4FORMB, 4-formylphenylboronate, reference compound]	=	5.55
CCCCB(O)O	<	3.30
O=Cc1ccsc1B(O)O	=	5.46

* * *

target: TEM-1 β-lactamase from E. coli (Escherichia coli); construct: gift: Natalie Strynadka, University of Alberta; test: Inhibition of TEM-1 β-lactamase, spectrophotometric assay (FAP substrate); assay type: biochemical; settings: Tables 2A/2B; pH 7.0, 25° C., 100 μM FAP; N.I. = no inhibition observed at an inhibitor concentration of 100 μM; read-out: Ki E. coli TEM-1
Below, each entry is listed with its recorded Ki.

COMPOUND	Ki
OB(c1ccccc1)c1ccccc1	> 100 µM
Cc1ccc(B(O)O)cc1 [4MEPB, 4-methylphenylboronate, reference compound]	> 100 µM
O=Cc1ccccc1B(O)O [2FORMB, 2-formylphenylboronate, reference compound]	> 100 µM
